Some binders, each annotated with its measured Kd.
# assayed system: T1, his-tagged human TIGIT (Acro Biosystems #TIT-H52H3) (human, UniProt Q495A1 22-141)
# T1 construct: Bought protein; also called His-tagged-TIGIT (human); not shown: his tag
# T1 sequence (looked up): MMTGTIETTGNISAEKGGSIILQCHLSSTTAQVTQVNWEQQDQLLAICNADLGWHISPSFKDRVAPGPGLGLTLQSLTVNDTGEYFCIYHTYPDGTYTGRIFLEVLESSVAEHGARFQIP
# protocol description: SPR (Carterra LSA), scFv-Fc captured, His-TIGIT analyte
# Description: Binding affinities of anti-TIGIT antibodies to human, cyno, and murine TIGIT were measured by Surface Plasmon Resonance (SPR) on a Carterra LSA instrument. Goat anti-human Fc antibody was amine coupled to a HC30M chip. ScFv-Fc supernatants were diluted 30-fold with HBSTE and were captured by the anti-human Fc coupled HC30M chip. A 1:2 dilution series of his-tagged human TIGIT, starting at 400 nM, was injected onto the chip for binding. […] Data were analyzed using the Carterra™ Kinetics software.
Give the quantity in nM, number only.

Short answer for 43586p2.D05 (scFv, V domains shown) VH: EVQLLESGGGLVQPGGSLRLSCAASGFTFDDYVMSWVRQAPGKGLEWVSLINWNGDKTYYADSVKGRFTISRDNSKNTLYLQMNSLRAEDTAVYYCARHWIVFQYGLDIWGQGTTVTVSS VL: QSVLTQPLSASGTPGQRVTISCSGVSSNIEIKYVSWYQQLPGTAPKLLIYNSHQRPSGVPDRFSGSKSGTSASLAISGLQSEDEADYYCTSWDDRLKSWVFGGGTKLTVL : Kd was 0.214

Short answer for 43645p1.D3 (scFv, V domains shown) VH: EVQLLESGGGLVQPGGSLRLSCAASGFTFSSYWMSWVRQAPGKGLEWVSGIHISDSTYYADSVKGRFTISRDNSKNTLYLQMNSLRAEDTAVYYCAKGHTVLQYGMDVWGQGTTVTVSS VL: QSGLTQPPSASGTPGQRVTISCSGDISNTRNNYVSWYQQLPGTAPKLLIYGNHQRPSGVPDRFSGSKSATSASLAISGLQSEDEADYYCGTWDNTLNAWVFGGGTKLTVL : Kd was 0.0171

Short answer for 43586p1.2.E6 (scFv, V domains shown) VH: EVQLLESGGGLVQPGGSLRLSCAASGFTVSDHYMSWVRQAPGKGLEWVSTTSSTSWKNYTYYADSVKGRFSISRDNSENTLYLQMNGLRAEDTAVYYCAKGSYGMDVWGQGTTVTVSS VL: QSVLTQPPSASGTPGQRVTISCSGSNFNIGTKYLYWYQQLPGTAPKLLIYLDSQRPSGVPDRFSTSKSGTSASLAISGLQSEDEADYYCALWDDHLHGWVFGGGTKLTVL : Kd was 1.56
